# System: Tetranychus urticae (Two-spotted spider mite)
# test.name: Tetranychus urticae (Two-spotted spider mite) mortality, sprayed bean leaf discs
# Assay type: in vivo
# condition.summary: foliar, 192 h, 200 ppm spray on bean leaf discs, mixed ages, egg, larval and adult mortality after 8 days
What pest or weed control at 200 ppm was measured for each of the following?

Solved cases (4 shown):
{"columns": ["compound", "property.name", "readout.value"],
 "data": [
  ["COc1c(NC(=O)c2ccc(OC(F)(F)F)cc2)cccc1C(=O)Nc1c(Br)cc(C(F)(C(F)(F)F)C(F)(F)F)cc1OC(F)F [Compound 50]", "pest or weed control at 200 ppm", "≥ 80%"],
  ["O=C(Nc1cccc(C(=O)Nc2c(Cl)cc(C(F)(C(F)(F)F)C(F)(F)F)cc2OC(F)F)c1F)c1ccccc1Cl [Compound 48]", "pest or weed control at 200 ppm", "≥ 80%"],
  ["COc1c(NC(=O)c2ccc([N+](=O)[O-])cc2)cccc1C(=O)Nc1c(Br)cc(C(F)(C(F)(F)F)C(F)(F)F)cc1OC(F)F [Compound 39]", "pest or weed control at 200 ppm", "≥ 80%"],
  ["CCN(C(=O)c1ccccc1Cl)c1cccc(C(=O)Nc2c(Cl)cc(C(F)(C(F)(F)F)C(F)(F)F)cc2OC(F)F)c1F [Compound 112]", "pest or weed control at 200 ppm", "≥ 80%"]
]}

Each compound below has a recorded value; state its pest or weed control at 200 ppm.
1. COc1c(C(=O)Nc2c(Br)cc(C(F)(C(F)(F)F)C(F)(F)F)cc2OC(F)F)cccc1N(C)C(=O)c1ccncc1 [Compound 102]
2. O=C(Nc1cccc(C(=O)Nc2c(Cl)cc(C(F)(C(F)(F)F)C(F)(F)F)cc2OC(F)F)c1F)c1ccc([N+](=O)[O-])cc1 [Compound 49]

Result block:
["≥ 80%", "≥ 80%"]
